B1: CAMK2B (parent)
chain: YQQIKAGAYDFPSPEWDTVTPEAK

Variants of: B1
Assay: protein stability index of a GFP-peptide fusion (GPS, HEK-293T) (PSI 1-6); higher = more stable;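 further: lentivirally expressed fusions sorted by FACS into six bins by GFP to DsRed ratio, PSI derived from sequencing read proportions per bin multiplied by bin number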
Details: c terminus: a fixed tail appended
Below, each entry is listed alongside its reported protein stability index.
Give your answer as a number; write no unit.

Some entries whose results are on file:
V19N; 3.97
A6Q; 3.92
Y1G; 5.11
Q2A; 3.12

Enquiry: Note protein stability index for the variant shown: P14S
Return: 3.71

Enquiry: Note protein stability index for the variant shown: Q3S
Return: 2.8

Enquiry: Note protein stability index for the variant shown: F11N
Return: 4.37

Enquiry: Note protein stability index for the variant shown: A8L
Return: 3.03

Enquiry: Note protein stability index for the variant shown: P14V
Return: 3.39

Enquiry: Note protein stability index for the variant shown: S13M
Return: 2.75
